The measured values listed here are drawn from patent US20240150377A1.

target: CFTR (Homo sapiens, UniProt P13569); assay: Membrane potential dye, Enteroid Assay A; type: cell-based; conditions: Table 7; chloride transport as % of triple combination control (Enteroid Assay A)
Sequence (P13569 with tags, fused parts or gaps DEL508-508): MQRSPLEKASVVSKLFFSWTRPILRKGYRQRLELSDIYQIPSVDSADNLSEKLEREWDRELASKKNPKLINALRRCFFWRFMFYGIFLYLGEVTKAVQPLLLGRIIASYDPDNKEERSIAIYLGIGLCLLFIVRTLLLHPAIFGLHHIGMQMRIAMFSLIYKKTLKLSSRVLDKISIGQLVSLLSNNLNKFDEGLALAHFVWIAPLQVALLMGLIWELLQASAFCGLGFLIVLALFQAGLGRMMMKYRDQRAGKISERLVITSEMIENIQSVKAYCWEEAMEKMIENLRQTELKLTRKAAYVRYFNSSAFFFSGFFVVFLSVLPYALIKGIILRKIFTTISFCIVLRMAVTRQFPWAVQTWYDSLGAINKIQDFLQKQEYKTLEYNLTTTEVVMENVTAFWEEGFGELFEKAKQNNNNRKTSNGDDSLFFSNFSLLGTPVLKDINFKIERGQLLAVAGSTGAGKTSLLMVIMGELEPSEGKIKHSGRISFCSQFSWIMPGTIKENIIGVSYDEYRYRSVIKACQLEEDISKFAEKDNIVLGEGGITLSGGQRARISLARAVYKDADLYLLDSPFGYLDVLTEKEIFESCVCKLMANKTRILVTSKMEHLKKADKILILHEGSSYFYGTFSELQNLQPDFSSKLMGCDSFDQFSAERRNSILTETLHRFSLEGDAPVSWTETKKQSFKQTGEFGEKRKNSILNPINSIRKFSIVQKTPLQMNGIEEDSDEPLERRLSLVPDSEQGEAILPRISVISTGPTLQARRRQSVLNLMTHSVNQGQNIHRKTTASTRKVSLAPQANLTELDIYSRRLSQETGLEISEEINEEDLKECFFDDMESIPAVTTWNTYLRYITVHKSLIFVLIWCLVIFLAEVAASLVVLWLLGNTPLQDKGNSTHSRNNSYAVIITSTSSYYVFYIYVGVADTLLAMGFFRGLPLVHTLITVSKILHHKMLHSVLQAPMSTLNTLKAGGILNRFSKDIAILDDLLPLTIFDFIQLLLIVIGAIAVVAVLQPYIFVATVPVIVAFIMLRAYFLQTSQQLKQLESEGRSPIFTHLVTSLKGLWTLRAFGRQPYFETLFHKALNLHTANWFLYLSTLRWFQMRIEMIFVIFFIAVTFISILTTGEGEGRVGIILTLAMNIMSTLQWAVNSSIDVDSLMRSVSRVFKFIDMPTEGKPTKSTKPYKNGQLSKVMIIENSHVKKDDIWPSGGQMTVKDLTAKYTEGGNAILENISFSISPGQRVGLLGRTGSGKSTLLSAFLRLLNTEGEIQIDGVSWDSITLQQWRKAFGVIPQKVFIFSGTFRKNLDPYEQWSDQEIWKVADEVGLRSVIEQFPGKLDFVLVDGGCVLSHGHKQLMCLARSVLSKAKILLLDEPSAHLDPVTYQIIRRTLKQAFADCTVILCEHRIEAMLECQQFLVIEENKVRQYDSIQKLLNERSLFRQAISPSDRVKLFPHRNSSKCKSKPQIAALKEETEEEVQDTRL

[
  {
    "SAMPLE SMILES": "Cc1cccc(C)c1-c1cc2nc(n1)NS(=O)(=O)c1cccc(c1)C(=O)N(Cc1ccc(N3CCC(C#N)CC3)nc1)[C@H](CC(C)C)CO2",
    "Ent. A Max Activity": "+++ (+++ is >60%)"
  },
  {
    "SAMPLE SMILES": "Cc1cccc(C)c1-c1cc2nc(n1)NS(=O)(=O)c1cccc(c1)C(=O)N(Cc1ccc(N3CCC(F)(F)CC3)nc1)[C@H](CC(C)C)CO2",
    "Ent. A Max Activity": "+++ (+++ is >60%)"
  },
  {
    "SAMPLE SMILES": "Cc1cccc(C)c1-c1cc2nc(n1)NS(=O)(=O)c1cccc(c1)C(=O)N(Cc1ccc(N3CCC[C@H](O)C3)nc1)[C@H](CC(C)C)CO2",
    "Ent. A Max Activity": "+++ (+++ is >60%)"
  }
]

====

Reported EC50 values are given for each entry in this list.
target: CFTR (Homo sapiens, UniProt P13569, DEL508-508); construct: endogenous in cells; host or cells: primary human bronchial epithelial cells from CF subjects (F508del/MF-HBE), differentiated at air-liquid interface; assay: HBE assay: Ussing chamber assay of CFTR-mediated short-circuit currents; format: cell-based; settings: Table 13; read-out: HBE EC50
Sequence (P13569 with tags, fused parts or gaps DEL508-508): as above

[
  {
    "COMPOUND": "COC1CC2(C1)CN(c1cnc(CN3C(=O)c4cccc(c4)S(=O)(=O)Nc4nc(cc(-c5c(C)cccc5C)n4)OC[C@H]3CC(C)(C)C)nc1)C2",
    "EC50": "< 1000 nM"
  },
  {
    "COMPOUND": "Cc1ccc(N(C)C2CC3(CC3)C2)nc1CN1C(=O)c2cccc(c2)S(=O)(=O)Nc2nc(cc(-c3c(C)cccc3C)n2)OC[C@H]1CC(C)(C)C",
    "EC50": "< 1000 nM"
  },
  {
    "COMPOUND": "Cc1ccc(F)c(CN2C(=O)c3cccc(c3)S(=O)(=O)Nc3nc(cc(-c4c(C)cccc4C)n3)OC[C@H]2CC(C)(C)C)n1",
    "EC50": "< 1000 nM"
  },
  {
    "COMPOUND": "Cc1cccc(C)c1-c1cc2nc(n1)NS(=O)(=O)c1cccc(c1)C(=O)N(Cc1cccc(N3CCC34CCC(C)(C)C4)n1)[C@H](CC(C)(C)C)CO2 (stereo partly drawn)",
    "EC50": "< 1000 nM"
  },
  {
    "COMPOUND": "Cc1cccc(C)c1-c1cc2nc(n1)NS(=O)(=O)c1cccc(c1)C(=O)N(Cc1cccc(N(CCOC(C)C)C(C)C)n1)[C@H](CC(C)(C)C)CO2",
    "EC50": "1000 to 3000 nM"
  },
  {
    "COMPOUND": "Cc1cccc(C)c1-c1cc2nc(n1)NS(=O)(=O)c1cccc(c1)C(=O)N(Cc1ccc(N3CC4(CCCO4)C3)cn1)[C@H](CC(C)(C)C)CO2",
    "EC50": "< 1000 nM"
  },
  {
    "COMPOUND": "COC1(C)CCN(c2ccc(CN3C(=O)c4cccc(c4)S(=O)(=O)Nc4nc(cc(-c5c(C)cccc5C)n4)OC[C@H]3CC(C)(C)C)nc2)CC1",
    "EC50": "< 1000 nM"
  },
  {
    "COMPOUND": "COCCN(c1cccc(CN2C(=O)c3cccc(n3)S(=O)(=O)Nc3nc(cc(-c4c(C)cccc4C)n3)OC[C@H]2CC(C)(C)C)n1)C(C)C",
    "EC50": "1000 to 3000 nM"
  },
  {
    "COMPOUND": "Cc1cccc(C)c1-c1cc2nc(n1)NS(=O)(=O)c1cccc(c1)C(=O)N(Cc1ccc(C3CC4(C3)CC(C)(C)C4)cn1)[C@H](CC(C)(C)C)CO2",
    "EC50": "< 1000 nM"
  }
]

====

biological target: UniProt:P13569; assay: Membrane potential dye, Enteroid Assay A; format: cell-based; settings: Table 6; chloride transport as % of triple combination control (Enteroid Assay A)

[
  {
    "COMPOUND": "Cc1cccc(C)c1-c1cc2nc(n1)NS(=O)(=O)c1cccc(c1)C(=O)N(C)CC(c1ccc(-c3ccc(C(C)(C)C)cc3)cn1)O2 (centres unmarked) [Compound 511]",
    "ASSAY SYSTEM": "UniProt:P13569",
    "Ent. A Max Activity": "+++ (+++ is >60%)"
  },
  {
    "COMPOUND": "Cc1cccc(C)c1-c1cc2nc(n1)NS(=O)(=O)c1cccc(c1)C(=O)N(Cc1cnn(C)c1)[C@H](CC(C)C)CO2 [Compound 432]",
    "ASSAY SYSTEM": "UniProt:P13569",
    "Ent. A Max Activity": "+++ (+++ is >60%)"
  },
  {
    "COMPOUND": "Cc1cccc(C)c1-c1cc2nc(n1)NS(=O)(=O)c1cccc(c1)C(=O)N(C)[C@H](C)[C@@H](c1ccc(C(C)(C)C)cc1)O2 [Compound 339]",
    "ASSAY SYSTEM": "UniProt:P13569",
    "Ent. A Max Activity": "++ (++ is 30-60%)"
  },
  {
    "COMPOUND": "COc1ccc(CN2C(=O)c3cccc(c3)S(=O)(=O)Nc3nc(cc(-c4c(C)cccc4C)n3)OC[C@H]2CC(C)C)cn1 [Compound 422]",
    "ASSAY SYSTEM": "UniProt:P13569",
    "Ent. A Max Activity": "+++ (+++ is >60%)"
  },
  {
    "COMPOUND": "Cc1cccc(C)c1-c1cc2nc(n1)NS(=O)(=O)c1cccc(c1)C(=O)N(Cc1ccccn1)CCCO2 [Compound 5]",
    "ASSAY SYSTEM": "UniProt:P13569",
    "Ent. A Max Activity": "+++ (+++ is >60%)"
  },
  {
    "COMPOUND": "Cc1cccc(C)c1-c1cc2nc(n1)NS(=O)(=O)c1cccc(c1)C(=O)N(C)CC(c1ccc(-c3ccccc3)cn1)O2 (centres unmarked) [Compound 513]",
    "ASSAY SYSTEM": "UniProt:P13569",
    "Ent. A Max Activity": "+++ (+++ is >60%)"
  },
  {
    "COMPOUND": "CNCCNCC1CN(C)C(=O)c2cccc(c2)S(=O)(=O)Nc2nc(cc(-c3c(C)cccc3C)n2)O1 (centres unmarked) [Compound 1016]",
    "ASSAY SYSTEM": "UniProt:P13569",
    "Ent. A Max Activity": "+ (+ is <30%)"
  },
  {
    "COMPOUND": "Cc1cccc(C)c1-c1cc2nc(n1)NS(=O)(=O)c1cccc(c1)C(=O)N(C)CC(c1ccc(Br)cc1)O2 (centres unmarked) [Compound 8]",
    "ASSAY SYSTEM": "UniProt:P13569",
    "Ent. A Max Activity": "+++ (+++ is >60%)"
  },
  {
    "COMPOUND": "COCCOCCN1C(=O)c2cccc(c2)S(=O)(=O)Nc2nc(cc(-c3c(C)cccc3C)n2)OC[C@H]1CC(C)C [Compound 424]",
    "ASSAY SYSTEM": "UniProt:P13569",
    "Ent. A Max Activity": "+++ (+++ is >60%)"
  },
  {
    "COMPOUND": "Cc1cccc(C)c1-c1cc2nc(n1)NS(=O)(=O)c1cccc(c1)C(=O)N(C)[C@H](CC(C)C)CO2 [Compound 71]",
    "ASSAY SYSTEM": "UniProt:P13569",
    "Ent. A Max Activity": "+++ (+++ is >60%)"
  },
  {
    "COMPOUND": "Cc1cc(CN2C(=O)c3cccc(c3)S(=O)(=O)Nc3nc(cc(-c4c(C)cccc4C)n3)OC[C@H]2CC(C)C)[nH]n1 [Compound 430]",
    "ASSAY SYSTEM": "UniProt:P13569",
    "Ent. A Max Activity": "+++ (+++ is >60%)"
  },
  {
    "COMPOUND": "Cc1cccc(C)c1-c1cc2nc(n1)NS(=O)(=O)c1cccc(c1)C(=O)N(Cc1ccn[nH]1)[C@H](CC(C)C)CO2 [Compound 860]",
    "ASSAY SYSTEM": "UniProt:P13569",
    "Ent. A Max Activity": "+++ (+++ is >60%)"
  },
  {
    "COMPOUND": "Cc1cccc(C)c1-c1cc2nc(n1)NS(=O)(=O)c1cccc(c1)C(=O)N(C)CC(c1ccc(C3=CCOCC3)cc1)O2 (centres unmarked) [Compound 675]",
    "ASSAY SYSTEM": "UniProt:P13569",
    "Ent. A Max Activity": "++ (++ is 30-60%)"
  },
  {
    "COMPOUND": "Cc1cccc(C)c1-c1cc2nc(n1)NS(=O)(=O)c1cccc(c1)C(=O)N(C)CC(c1ccc(C(N)=O)cc1)O2 (centres unmarked) [Compound 666]",
    "ASSAY SYSTEM": "UniProt:P13569",
    "Ent. A Max Activity": "+ (+ is <30%)"
  },
  {
    "COMPOUND": "C=CC1CN(CCC(C)C)C(=O)c2cccc(c2)S(=O)(=O)Nc2nc(cc(-c3c(C)cccc3C)n2)O1 (centres unmarked) [Compound 1012]",
    "ASSAY SYSTEM": "UniProt:P13569",
    "Ent. A Max Activity": "++ (++ is 30-60%)"
  },
  {
    "COMPOUND": "Cc1cccc(C)c1-c1cc2nc(n1)NS(=O)(=O)c1cccc(c1)C(=O)N(CCC(C)C)CC(c1ccc(C(C)(C)C)cc1)O2 (centres unmarked) [Compound 341]",
    "ASSAY SYSTEM": "UniProt:P13569",
    "Ent. A Max Activity": "++ (++ is 30-60%)"
  },
  {
    "COMPOUND": "Cc1cccc(C)c1-c1cc2nc(n1)NS(=O)(=O)c1cccc(c1)C(=O)N(Cc1ccc(N3CCCC3)cc1)[C@H](CC(C)C)CO2 [Compound 858]",
    "ASSAY SYSTEM": "UniProt:P13569",
    "Ent. A Max Activity": "+++ (+++ is >60%)"
  },
  {
    "COMPOUND": "Cc1cccc(C)c1-c1cc2nc(n1)NS(=O)(=O)c1cccc(c1)C(=O)N(C[C@H]1CCOC(C)(C)C1)[C@H](CC(C)C)CO2 [Compound 428]",
    "ASSAY SYSTEM": "UniProt:P13569",
    "Ent. A Max Activity": "+++ (+++ is >60%)"
  },
  {
    "COMPOUND": "Cc1cccc(C)c1-c1cc2nc(n1)NS(=O)(=O)c1cccc(c1)C(=O)N(Cc1ccccc1)C(CCC1(C(F)(F)F)CC1)CO2 (centres unmarked) [Compound 689]",
    "ASSAY SYSTEM": "UniProt:P13569",
    "Ent. A Max Activity": "+++ (+++ is >60%)"
  },
  {
    "COMPOUND": "Cc1cccc(C)c1-c1cc2nc(n1)NS(=O)(=O)c1cccc(c1)C(=O)N(CC1CC1)[C@H](CC(C)C)CO2 [Compound 366]",
    "ASSAY SYSTEM": "UniProt:P13569",
    "Ent. A Max Activity": "+++ (+++ is >60%)"
  }
]
